Molecular target: T1, human MSLN-R3-3 polypeptide (human)
T1 construct: also called human MSLN-R3-3 protein; hMSLN-R3-3
Assay: ELISA, coated antigen; antibody 100 nM
Please provide measured OD450 for the entries that follow.
Numbers only, in OD450.

Use the examples below as a reference point.
binder="S009-F3.7.3 (antibody, human IgG1, kappa, V domains shown, Human-murine chimeric antibody: murine VH/VL on human IgG1 heavy chain constant region and human kappa constant region) VH: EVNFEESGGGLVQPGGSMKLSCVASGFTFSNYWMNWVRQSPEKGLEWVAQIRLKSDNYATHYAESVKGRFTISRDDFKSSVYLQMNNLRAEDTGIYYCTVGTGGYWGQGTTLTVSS VL: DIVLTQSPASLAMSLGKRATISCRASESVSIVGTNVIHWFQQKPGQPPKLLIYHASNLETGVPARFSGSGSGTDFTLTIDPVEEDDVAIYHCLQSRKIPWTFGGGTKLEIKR" measurement_label=OD450 readout_number=0.11
binder="S009-F3.16.1 (antibody, human IgG1, kappa, V domains shown, Human-murine chimeric antibody, human IgG1/kappa constant regions) VH: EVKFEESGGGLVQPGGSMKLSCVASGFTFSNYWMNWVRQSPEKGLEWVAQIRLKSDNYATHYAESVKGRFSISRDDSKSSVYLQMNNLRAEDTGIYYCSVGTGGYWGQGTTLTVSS VL: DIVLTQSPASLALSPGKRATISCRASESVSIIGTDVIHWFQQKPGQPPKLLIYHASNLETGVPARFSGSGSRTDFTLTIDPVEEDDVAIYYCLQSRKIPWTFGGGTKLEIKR" measurement_label=OD450 readout_number=0.11
binder="S009-F3.80.22 (antibody, human IgG1, kappa, V domains shown, Human-murine chimeric antibody, human IgG1/kappa constant regions) VH: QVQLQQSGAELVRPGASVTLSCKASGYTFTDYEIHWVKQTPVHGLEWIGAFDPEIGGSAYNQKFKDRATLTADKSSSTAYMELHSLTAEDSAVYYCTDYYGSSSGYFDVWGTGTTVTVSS VL: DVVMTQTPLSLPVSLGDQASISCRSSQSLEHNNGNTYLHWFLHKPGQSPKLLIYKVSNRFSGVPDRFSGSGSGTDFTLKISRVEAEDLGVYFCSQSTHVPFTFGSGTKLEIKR" measurement_label=OD450 readout_number=1.93
binder="S009-F3.74.20 (antibody, human IgG1, kappa, V domains shown, Human-murine chimeric antibody, human IgG1/kappa constant regions) VH: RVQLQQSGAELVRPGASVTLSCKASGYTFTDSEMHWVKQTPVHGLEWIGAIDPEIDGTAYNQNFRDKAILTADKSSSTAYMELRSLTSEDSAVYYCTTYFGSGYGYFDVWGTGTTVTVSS VL: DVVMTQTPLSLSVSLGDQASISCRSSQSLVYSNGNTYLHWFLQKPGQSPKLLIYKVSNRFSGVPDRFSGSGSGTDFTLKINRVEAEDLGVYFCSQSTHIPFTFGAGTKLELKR" measurement_label=OD450 readout_number=2.07
binder="S009-F3.38.10 (antibody, human IgG1, kappa, V domains shown, Human-murine chimeric antibody, human IgG1/kappa constant regions) VH: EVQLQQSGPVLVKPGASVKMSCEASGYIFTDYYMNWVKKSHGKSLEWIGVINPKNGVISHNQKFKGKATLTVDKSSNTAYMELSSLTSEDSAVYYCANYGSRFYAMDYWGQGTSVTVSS VL: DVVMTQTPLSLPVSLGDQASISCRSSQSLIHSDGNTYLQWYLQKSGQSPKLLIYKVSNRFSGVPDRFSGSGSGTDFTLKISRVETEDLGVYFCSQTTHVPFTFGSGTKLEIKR" measurement_label=OD450 readout_number=0.32

If you can, please state the reported OD450 value of S009-F3.45.21 (antibody, human IgG1, kappa, V domains shown, Human-murine chimeric antibody, human IgG1/kappa constant regions) VH: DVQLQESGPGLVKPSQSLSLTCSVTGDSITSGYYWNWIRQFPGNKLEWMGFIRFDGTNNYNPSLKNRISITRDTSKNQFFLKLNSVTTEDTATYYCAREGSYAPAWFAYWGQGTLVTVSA VL: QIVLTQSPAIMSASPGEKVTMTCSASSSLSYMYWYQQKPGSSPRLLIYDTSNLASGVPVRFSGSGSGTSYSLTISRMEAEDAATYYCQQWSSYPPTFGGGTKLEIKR .
0.11
